# method-description: NCI Yeast Anticancer Drug Screen. Data for the mec2-1 strain (AID 157)
# condition-info: S. cerevisiae mec2-1 strain, at 50.0 µM, hits give high values
The panel holds about 79,000 compounds, 15% with a hit somewhere; the sample as a whole holds those more often.
quantity-measured: growth inhibition (%)
Answer with a number only, understood to be in %.

// worked examples, growth inhibition included
compound | growth inhibition, %
O=C(/C=C/c1ccc(OCCCCCCCCCCOc2ccc(/C=C/C(=O)c3ccc(Cl)cc3)cc2)cc1)c1ccc(Cl)cc1 | -1.45
CC1(C)O[C@@H]2C[C@H]3[C@@H]4C[C@H](F)C5=CC(=O)C=C[C@]5(C)[C@@]4(F)[C@@H](O)C[C@]3(C)[C@]2(C(=O)CO)O1 | -25.6

Here is the next item to consider.
Exercise: Request the reported growth inhibition associated with `O=C(Cc1ccccc1)NNC(=O)Nc1ccccc1`
Key: -3.6

Data provenance is PubChem BioAssay (NCI).
